Target: UniProt O42713
Sequence (O42713 whole entry): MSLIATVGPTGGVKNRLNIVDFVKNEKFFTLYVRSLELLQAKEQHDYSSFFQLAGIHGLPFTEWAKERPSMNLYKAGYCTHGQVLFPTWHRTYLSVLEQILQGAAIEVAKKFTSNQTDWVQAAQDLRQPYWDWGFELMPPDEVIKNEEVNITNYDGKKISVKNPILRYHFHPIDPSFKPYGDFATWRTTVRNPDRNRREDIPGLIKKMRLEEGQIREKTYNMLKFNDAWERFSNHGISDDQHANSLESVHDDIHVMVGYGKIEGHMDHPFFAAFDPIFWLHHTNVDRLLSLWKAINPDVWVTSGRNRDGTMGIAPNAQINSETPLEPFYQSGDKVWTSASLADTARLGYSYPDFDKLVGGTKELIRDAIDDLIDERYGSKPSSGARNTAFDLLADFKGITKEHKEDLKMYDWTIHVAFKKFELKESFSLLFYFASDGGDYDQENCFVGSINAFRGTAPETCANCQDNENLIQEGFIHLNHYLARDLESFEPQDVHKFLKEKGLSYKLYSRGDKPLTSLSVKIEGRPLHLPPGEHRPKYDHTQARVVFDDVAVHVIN
Assay: Inhibition of mushroom tyrosinase at 1 uM
Parameter Measured: inhibition (%)
The reply should be a number in %, with the unit left off.

Molecule	inhibition [%]
O=c1c(O)c(-c2ccccc2)oc2cc(O)cc(O)c12	28
O=C1c2c(O)cc(O)cc2O[C@H](c2ccc(O)cc2)[C@H]1O [DIHYDROKAEMPFEROL]	6
O=C(O)CCc1ccccc1	3.8
O[C@H](CCc1ccccc1)C[C@H](O)CCc1ccccc1	2.7
COc1cc(CC[C@@H](O)CC(=O)CCc2ccccc2)ccc1O	2.3
COc1cc(CC/C=C/C(=O)CCc2ccccc2)ccc1O	3.2
COc1ccc(-c2oc3cc(O)cc(O)c3c(=O)c2O)cc1 [KAEMPFERIDE]	-1.7
O=c1c(O)c(-c2ccc(O)cc2)oc2cc(O)cc(O)c12	5.7

(Q) Using the record for COc1cc(CCC(C)=O)ccc1O , report its inhibition.
(A) 1.4

(Q) Using the record for O=C1c2c(O)cc(O)cc2O[C@H](c2ccccc2)[C@H]1O , report its inhibition.
(A) 1.8

(Q) Using the record for O=C(CCc1ccccc1)C[C@H](O)CCc1ccccc1 , report its inhibition.
(A) 3.3

---

Assay: cells
Conditions: Mus musculus, B16-4A5, 72 h, read-out: INH
Description: Inhibition of melanogenesis in theophylline-stimulated mouse B16-4A5 cells at 10 uM after 72 hrs
Listing: inhibition at 10 µM of selected compounds
The reply should be a number in %, with the unit left off.

Some entries whose results are on file:
Compound	inhibition at 10 µM / %
O=C1c2c(O)cc(O)cc2O[C@H](c2ccccc2)[C@H]1O	10.8
O=C(O)CCc1ccccc1	3.8
O=C1c2c(O)cc(O)cc2O[C@H](c2ccc(O)cc2)[C@H]1O [DIHYDROKAEMPFEROL]	12.7
O=C(CCc1ccccc1)C[C@H](O)CCc1ccccc1	10.6

(Q) Using the record for COc1ccc(-c2oc3cc(O)cc(O)c3c(=O)c2O)cc1 [KAEMPFERIDE] , report its inhibition at 10 µM.
(A) 39.9

(Q) Using the record for COc1cc(CC/C=C/C(=O)CCc2ccccc2)ccc1O , report its inhibition at 10 µM.
(A) 49.3

---

Assay: cells
Conditions: Mus musculus, B16-4A5, 68 h, read-out: INH
Description: Inhibition of theophylline-stimulated mouse B16-4A5 cell proliferation assessed as cell viability at 3 uM after 68 hrs by WST8 assay
Listing: inhibition at 3 µM of selected compounds
The reply should be a number in %, with the unit left off.

Compound	Readout Value
O[C@H](CCc1ccccc1)C[C@H](O)CCc1ccccc1	-0.5

(Q) Using the record for O=c1c(O)c(-c2ccc(O)cc2)oc2cc(O)cc(O)c12 [KAEMPFEROL] , report its inhibition at 3 µM.
(A) 18.1

(Q) Using the record for COc1cc(CCC(C)=O)ccc1O [ZINGERONE] , report its inhibition at 3 µM.
(A) -2.8

(Q) Using the record for COc1cc(CC/C=C/C(=O)CCc2ccccc2)ccc1O , report its inhibition at 3 µM.
(A) 3.8

(Q) Using the record for COc1cc(CC[C@@H](O)CC(=O)CCc2ccccc2)ccc1O , report its inhibition at 3 µM.
(A) 11.7

(Q) Using the record for O=C(CCc1ccccc1)C[C@H](O)CCc1ccccc1 , report its inhibition at 3 µM.
(A) 0.7

---

System: B16
Test: cells
Conditions: Mus musculus, B16, 72 h
Description: Inhibition of melanogenesis in theophylline-stimulated mouse B16-4A5 cells after 72 hrs
Parameter Measured: IC50 (µM)
The reply should be a number in µM, with the unit left off.

Molecule	Readout Value
O=C1c2c(O)cc(O)cc2O[C@H](c2ccc(O)cc2)[C@H]1O [DIHYDROKAEMPFEROL]	84
OC[C@H]1O[C@@H](Oc2ccc(O)cc2)[C@H](O)[C@@H](O)[C@@H]1O [ARBUTIN]	116
O=c1c(O)c(-c2ccc(O)cc2)oc2cc(O)cc(O)c12 [KAEMPFEROL]	20
COc1cc(CC[C@@H](O)CC(=O)CCc2ccccc2)ccc1O	30
O=C(CCc1ccccc1)C[C@H](O)CCc1ccccc1	48
O=c1c(O)c(-c2ccccc2)oc2cc(O)cc(O)c12 [GALANGIN]	17

Now take the following molecule into account.
(Q) Using the record for COc1ccc(-c2oc3cc(O)cc(O)c3c(=O)c2O)cc1 [KAEMPFERIDE] , report its IC50.
(A) 16
